system: IGROV1 complex spheroids (HUVEC, MSC), viability % test/control; test: Anticancer human tumor IGROV1 cell line growth inhibition [GQUAD]; settings: second compound 10 µM; first compound 1 µM; stronger effect = lower value;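 also: spheroids exposed to compounds for 7 days before readout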;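 as to viability, T/C: 100% = DMSO vehicle control viability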
Below: a set of entries, each annotated with reported viability, T/C.
experimentalEndpoint: viability, T/C (%)

[[record]]
molecule = "C#Cc1c(F)ccc2cc(O)cc(-c3ncc4c(N5CC6CCC(C5)N6)nc(OCC56CCCN5CC(F)C6)nc4c3F)c12 (stereo unspecified) + Cc1[nH]c2ccc(F)cc2c1-c1nc2c3cccnc3c3ncccc3c2[nH]1"
experimentalendpoint = "viability, T/C"
measurement = 2.65

[[record]]
molecule = "CC1COCCN1c1cc(C2(O)CC3CCC(C2)O3)c2cnn(-c3ccn[nH]3)c2n1 (stereo unspecified) + CN(C)c1ccc(Nc2c3ccc(NC(=O)CCN4CCCC4)cc3nc3cc(NC(=O)CCN4CCCC4)ccc23)cc1"
experimentalendpoint = "viability, T/C"
measurement = 4.42

[[record]]
molecule = "COc1ccc([C@@H](O)c2cc(-c3ncnc4cc(N5CCOCC5)ccc34)c(F)cc2Cl)nn1 + CN(C)c1ccc(Nc2c3ccc(NC(=O)CCN4CCCC4)cc3nc3cc(NC(=O)CCN4CCCC4)ccc23)cc1"
experimentalendpoint = "viability, T/C"
measurement = 13.7

[[record]]
molecule = "O=C(NO)c1cnc(N2CCN(S(=O)(=O)c3ccc4ccccc4c3)CC2)nc1 + Cc1cnc(CNC(=O)c2c(=O)c3ccc(N4CCCN(C)CC4)nc3n3c2sc2ccccc23)cn1"
experimentalendpoint = "viability, T/C"
measurement = 0.07

[[record]]
molecule = "CC1COCCN1c1cc(C2(O)CC3CCC(C2)O3)c2cnn(-c3ccn[nH]3)c2n1 (stereo unspecified) + Cc1[nH]c2ccc(F)cc2c1-c1nc2c3cccnc3c3ncccc3c2[nH]1"
experimentalendpoint = "viability, T/C"
measurement = 2.77

[[record]]
molecule = "C=CCn1c(=O)c2cnc(Nc3ccc(N4CCN(C)CC4)cc3)nc2n1-c1cccc(C(C)(C)O)n1 + Cc1cnc(CNC(=O)c2c(=O)c3ccc(N4CCCN(C)CC4)nc3n3c2sc2ccccc23)cn1"
experimentalendpoint = "viability, T/C"
measurement = 3.1

[[record]]
molecule = "CC(C)n1c(=O)n(C)c2cnc3cc(F)c(-c4ccc(OCCCN5CCCCC5)nc4)cc3c21 + Cc1cnc(CNC(=O)c2c(=O)c3ccc(N4CCCN(C)CC4)nc3n3c2sc2ccccc23)cn1"
experimentalendpoint = "viability, T/C"
measurement = 9.57

[[record]]
molecule = "COc1ncnc(C2CC2)c1-c1ncc2cnn(Cc3ccc(-c4nc(C(F)(F)F)cn4C(C)C)cc3)c2n1 + CN(C)c1ccc(Nc2c3ccc(NC(=O)CCN4CCCC4)cc3nc3cc(NC(=O)CCN4CCCC4)ccc23)cc1"
experimentalendpoint = "viability, T/C"
measurement = 41.6

[[record]]
molecule = "CC1COCCN1c1cc(-c2ccnn2C)c2ccnc(-c3ccn[nH]3)c2n1 (stereo unspecified) + CN(C)c1ccc(Nc2c3ccc(NC(=O)CCN4CCCC4)cc3nc3cc(NC(=O)CCN4CCCC4)ccc23)cc1"
experimentalendpoint = "viability, T/C"
measurement = 5.87

[[record]]
molecule = "CC1COCCN1c1cc(C2(S(C)(=N)=O)CC2)nc(-c2ccnc3[nH]ccc23)n1 (stereo unspecified) + Cc1cnc(CNC(=O)c2c(=O)c3ccc(N4CCCN(C)CC4)nc3n3c2sc2ccccc23)cn1"
experimentalendpoint = "viability, T/C"
measurement = 8.94

[[record]]
molecule = "COc1ccc([C@@H](O)c2cc(-c3ncnc4cc(N5CCOCC5)ccc34)c(F)cc2Cl)nn1 + Cc1[nH]c2ccc(F)cc2c1-c1nc2c3cccnc3c3ncccc3c2[nH]1"
experimentalendpoint = "viability, T/C"
measurement = 4.13


* * *

system: IGROV1 complex spheroids (HUVEC, MSC), viability % test/control; assay: Anticancer human tumor IGROV1 cell line growth inhibition [GQUAD]; conditions: second compound 1 µM; first compound 0.316 µM; stronger effect = lower value;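 also: spheroids exposed to compounds for 7 days before readout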;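 as to viability, T/C: 100% = DMSO vehicle control viability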
Below: a set of entries, each annotated with reported viability, T/C.
experimentalEndpoint: viability, T/C (%)

[[record]]
compound = "Cc1cccc(N(C)C(=O)C2C(O)CCN2c2nc(C)cc(C(F)(F)F)c2C#N)c1 (stereo not given) + Cc1cnc(CNC(=O)c2c(=O)c3ccc(N4CCCN(C)CC4)nc3n3c2sc2ccccc23)cn1"
experimentalendpoint = "viability, T/C"
measurement = 20.4

[[record]]
compound = "CC(=O)O[C@H]1C(=O)[C@@]2(C)[C@H]([C@H](OC(=O)c3ccccc3)[C@]3(O)C[C@H](OC(=O)[C@H](O)[C@@H](NC(=O)c4ccccc4)c4ccccc4)C(C)=C1C3(C)C)[C@]1(OC(C)=O)CO[C@@H]1C[C@@H]2O + Cc1[nH]c2ccc(F)cc2c1-c1nc2c3cccnc3c3ncccc3c2[nH]1"
experimentalendpoint = "viability, T/C"
measurement = 2.5

[[record]]
compound = "CC(C)n1c(=O)n(C)c2cnc3cc(F)c(-c4ccc(OCCCN5CCCCC5)nc4)cc3c21 + Cc1[nH]c2ccc(F)cc2c1-c1nc2c3cccnc3c3ncccc3c2[nH]1"
experimentalendpoint = "viability, T/C"
measurement = 5.53

[[record]]
compound = "COc1cccc2c1C(=O)c1c(O)c3c(c(O)c1C2=O)CC(O)(C(=O)CO)CC3OC1CC(N)C(O)C(C)O1 (stereo not given) + CN(C)c1ccc(Nc2c3ccc(NC(=O)CCN4CCCC4)cc3nc3cc(NC(=O)CCN4CCCC4)ccc23)cc1"
experimentalendpoint = "viability, T/C"
measurement = 7.36

[[record]]
compound = "COc1ccc([C@@H](O)c2cc(-c3ncnc4cc(N5CCOCC5)ccc34)c(F)cc2Cl)nn1 + Cc1cnc(CNC(=O)c2c(=O)c3ccc(N4CCCN(C)CC4)nc3n3c2sc2ccccc23)cn1"
experimentalendpoint = "viability, T/C"
measurement = 16.1


* * *

Tested on: IGROV1 complex spheroids (HUVEC, MSC), viability % test/control
Experiment: Anticancer human tumor IGROV1 cell line growth inhibition [GQUAD];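 also: spheroids exposed to compounds for 7 days before readout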
Conditions: curve of first compound; second compound 0.0316 µM
Description: DNA G-quadruplex Stabilizer Agents in Combinations in Complex Spheroids A high-throughput screen of multi-cell type tumor spheroids was designed to identify active combinations of DNA G-quadruplex stabilizer agents and targeted small molecules. […] Compounds. […] If the clinical Cmax for an agent had not been determined, the highest concentration tested was 10 microM. […]
Below: a set of entries, each annotated with reported IC50.
experimentalEndpoint: IC50 (nM)

[[record]]
compound = "COc1cccc2c1C(=O)c1c(O)c3c(c(O)c1C2=O)CC(O)(C(=O)CO)CC3OC1CC(N)C(O)C(C)O1 (stereo not drawn) + Cc1[nH]c2ccc(F)cc2c1-c1nc2c3cccnc3c3ncccc3c2[nH]1"
measurement = 58.1

[[record]]
compound = "CC1COCCN1c1cc(C2(S(C)(=N)=O)CC2)nc(-c2ccnc3[nH]ccc23)n1 (stereo not drawn) + Cc1cnc(CNC(=O)c2c(=O)c3ccc(N4CCCN(C)CC4)nc3n3c2sc2ccccc23)cn1"
measurement = 205

[[record]]
compound = "CC1COCCN1c1cc(C2(O)CC3CCC(C2)O3)c2cnn(-c3ccn[nH]3)c2n1 (stereo not drawn) + CN(C)c1ccc(Nc2c3ccc(NC(=O)CCN4CCCC4)cc3nc3cc(NC(=O)CCN4CCCC4)ccc23)cc1"
measurement = 36.8


* * *

system: IGROV1 complex spheroids (HUVEC, MSC), viability % test/control; assay: Anticancer human tumor IGROV1 cell line growth inhibition [GQUAD]; conditions: second compound 1 µM; first compound 0.316 µM; active = viability on the fitted dose curve at most 10% of control; inactive = the rest;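 also: spheroids exposed to compounds for 7 days before readout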
Classes used: active, inactive

[[record]]
compound = "CC[C@@]1(O)C(=O)OCc2c1cc1n(c2=O)Cc2cc3c(CN(C)C)c(O)ccc3nc2-1 + Cc1cnc(CNC(=O)c2c(=O)c3ccc(N4CCCN(C)CC4)nc3n3c2sc2ccccc23)cn1"
categorylabel = "inactive"

[[record]]
compound = "Cn1ncnc1[C@H]1c2n[nH]c(=O)c3cc(F)cc(c23)N[C@@H]1c1ccc(F)cc1 + Cc1[nH]c2ccc(F)cc2c1-c1nc2c3cccnc3c3ncccc3c2[nH]1"
categorylabel = "active"

[[record]]
compound = "CCc1c2c(nc3ccc(O)cc13)-c1cc3c(c(=O)n1C2)COC(=O)[C@]3(O)CC + Cc1[nH]c2ccc(F)cc2c1-c1nc2c3cccnc3c3ncccc3c2[nH]1"
categorylabel = "active"


* * *

tested on: IGROV1 complex spheroids (HUVEC, MSC), viability % test/control; test: Anticancer human tumor IGROV1 cell line growth inhibition [GQUAD]; settings: second compound 10 µM; first compound 0.316 µM; active = viability on the fitted dose curve at most 10% of control; inactive = the rest;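 also: spheroids exposed to compounds for 7 days before readout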
Classes used: y (active), n (inactive)

[[record]]
molecule = "COc1cccc2c1C(=O)c1c(O)c3c(c(O)c1C2=O)CC(O)(C(=O)CO)CC3OC1CC(N)C(O)C(C)O1 (stereo unspecified) + Cc1cnc(CNC(=O)c2c(=O)c3ccc(N4CCCN(C)CC4)nc3n3c2sc2ccccc23)cn1"
categorylabel = "y"

[[record]]
molecule = "O=c1[nH]cc(F)c(=O)[nH]1 + CN(C)c1ccc(Nc2c3ccc(NC(=O)CCN4CCCC4)cc3nc3cc(NC(=O)CCN4CCCC4)ccc23)cc1"
categorylabel = "n"

[[record]]
molecule = "COc1cccc2c1C(=O)c1c(O)c3c(c(O)c1C2=O)CC(O)(C(=O)CO)CC3OC1CC(N)C(O)C(C)O1 (stereo unspecified) + Cc1[nH]c2ccc(F)cc2c1-c1nc2c3cccnc3c3ncccc3c2[nH]1"
categorylabel = "y"

[[record]]
molecule = "O=C(c1cc(Cc2n[nH]c(=O)c3ccccc23)ccc1F)N1CCN(C(=O)C2CC2)CC1 + CN(C)c1ccc(Nc2c3ccc(NC(=O)CCN4CCCC4)cc3nc3cc(NC(=O)CCN4CCCC4)ccc23)cc1"
categorylabel = "n"

[[record]]
molecule = "COc1cc(C2c3cc4c(cc3C(OC3OC5COC(C)OC5C(O)C3O)C3COC(=O)C23)OCO4)cc(OC)c1O (stereo unspecified) + CN(C)c1ccc(Nc2c3ccc(NC(=O)CCN4CCCC4)cc3nc3cc(NC(=O)CCN4CCCC4)ccc23)cc1"
categorylabel = "n"

[[record]]
molecule = "Cc1cccc(N(C)C(=O)C2C(O)CCN2c2nc(C)cc(C(F)(F)F)c2C#N)c1 (stereo unspecified) + Cc1[nH]c2ccc(F)cc2c1-c1nc2c3cccnc3c3ncccc3c2[nH]1"
categorylabel = "y"

[[record]]
molecule = "C#Cc1c(F)ccc2cc(O)cc(-c3ncc4c(N5CC6CCC(C5)N6)nc(OCC56CCCN5CC(F)C6)nc4c3F)c12 (stereo unspecified) + Cc1[nH]c2ccc(F)cc2c1-c1nc2c3cccnc3c3ncccc3c2[nH]1"
categorylabel = "y"

[[record]]
molecule = "CC1COCCN1c1cc(-c2ccnn2C)c2ccnc(-c3ccn[nH]3)c2n1 (stereo unspecified) + CN(C)c1ccc(Nc2c3ccc(NC(=O)CCN4CCCC4)cc3nc3cc(NC(=O)CCN4CCCC4)ccc23)cc1"
categorylabel = "y"

[[record]]
molecule = "O=C(NO)c1cnc(N2CCN(S(=O)(=O)c3ccc4ccccc4c3)CC2)nc1 + CN(C)c1ccc(Nc2c3ccc(NC(=O)CCN4CCCC4)cc3nc3cc(NC(=O)CCN4CCCC4)ccc23)cc1"
categorylabel = "y"

[[record]]
molecule = "O=c1[nH]cc(F)c(=O)[nH]1 + Cc1[nH]c2ccc(F)cc2c1-c1nc2c3cccnc3c3ncccc3c2[nH]1"
categorylabel = "y"

[[record]]
molecule = "O=C(NO)c1cnc(N2CCN(S(=O)(=O)c3ccc4ccccc4c3)CC2)nc1 + Cc1[nH]c2ccc(F)cc2c1-c1nc2c3cccnc3c3ncccc3c2[nH]1"
categorylabel = "y"

